Tgt: T1, SARS-CoV-2 Spike receptor binding domain (RBD), wild type, His-tagged (SARS-CoV-2, UniProt P0DTC2)
T1 construct: also called WT RBD; BEI NR52309
Test description: BLI
Experimental parameters: both partners purified
Measurement label: binding result

INSERT INTO measurements (binder, reported_measurement) VALUES
  ('mAb 82, full-length IgG (antibody, V domains shown) VH: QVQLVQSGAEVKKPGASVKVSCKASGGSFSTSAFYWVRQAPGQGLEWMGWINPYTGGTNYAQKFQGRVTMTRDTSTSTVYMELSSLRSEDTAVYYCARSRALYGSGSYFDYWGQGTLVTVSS VL: DIQMTQSPSSLSASVGDRVTITCRASQVISNYLAWYQQKPGKAPKLLIYDASNLETGVPSRFSGSGSGTDFTLTISSLQPEDFATYYCQQSFSPPPTFGQGTRLEIK', 'binds'),
  ('mAb 324, full-length IgG (antibody, V domains shown) VH: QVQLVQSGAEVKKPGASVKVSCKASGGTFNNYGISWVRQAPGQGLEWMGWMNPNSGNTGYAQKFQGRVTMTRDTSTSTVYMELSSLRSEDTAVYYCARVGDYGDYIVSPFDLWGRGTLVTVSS VL: DIQMTQSPSSLSASVGDRVTITCRASQSITTYLNWYQQKPGKAPKLLIYDASNLETGVPSRFSGSGSGTDFTLTISSLQPEDFATYYCQQSYSTPPTFGQGTKVEIK', 'binds'),
  ('mAb 52, full-length IgG (antibody, V domains shown, also called antibody 52) VH: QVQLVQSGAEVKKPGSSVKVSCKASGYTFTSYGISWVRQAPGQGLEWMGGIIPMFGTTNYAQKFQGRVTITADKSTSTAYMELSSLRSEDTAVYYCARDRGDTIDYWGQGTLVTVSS VL: DIQMTQSPSSLSASVGDRVTITCRASQGISNNLNWYQQKPGKAPKLLIYAASSLESGVPSRFSGSGSGTDFTLTISSLQPEDFATYYCQQGNGFPLTFGPGTKVDIK', 'binds');
